Reported values of boiling point for individual entries
Your answer is read as °C, so omit the unit and give the number.

Example results:
O=Cc1cccc(Br)c1	234
CC(C)(C)c1ccc(C(C)(C)C)o1	210
OCCCc1ccncc1	289
CCCCCCCCCCCCCCCCCCCCCC1CCCC1	420
CC(C)(C)CC(=O)O	190

Ask: Name the recorded boiling point for CCCCC(CC)CCC(=O)CC(C)C (stereo unspecified) .
Reply: 252

Ask: Please give the measured boiling point for this molecule: COC(=O)CC(O)(CC(=O)OC)C(=O)OC
Reply: 285

Ask: Report boiling point for CC1CCCC2(C)CCCCC12O (stereo unspecified) please.
Reply: 270
